Could you please report measured gedunin rank for the items listed next?
Test system: gedunin signature
TEST DESCRIPTION: Connectivity Map query with the gedunin signature
Type: cell-based, human
CONDITION: rank by gedunin score among 164 Connectivity Map compounds
Answers are plain numbers.

Prompt line: Supply gedunin rank measured with gedunin signature for Nc1c(O)cccc1C(=O)CC(N)C(=O)O (racemic) [3-hydroxy-DL-kynurenine] .
Response line: 96

Report gedunin rank for every entry below.
1. Oc1cc(O)c2c(c1)OC(c1ccc(O)c(O)c1)C(O)C2 (single isomer, unassigned; (-)) [(−)-catechin]
2. CCCCC/C=C/C=C1/C(=O)C=C[C@@H]1C/C=C\CCCC(=O)O
3. CC/C=C\C/C=C\C/C=C\C/C=C\C/C=C\C/C=C\CCC(=O)OCC

Response line:
1. 24
2. 9
3. 21

The reported numbers originate from patent US20110263693A1.
